B1: PI4K2A (parent)
chain: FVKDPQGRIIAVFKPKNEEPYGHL

variants of: B1; assay: protein stability index of a GFP-peptide fusion (GPS, HEK-293T) (PSI 1-6); higher = more stable; conditions: c terminus: a fixed tail appended;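 also: lentivirally expressed fusions sorted by FACS into six bins by GFP to DsRed ratio, PSI derived from sequencing read proportions per bin multiplied by bin number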
Catalogue of variants with associated protein stability index
Give only the figure.

ALTERATION	REPORTED_VALUE
K3I	2.03
V2K	2.04
I10M	2.51
V2G	2.09
P15W	1.08
E18A	2.39

Indicate its recorded protein stability index; the variant in question is K16S
1.48

// fetch protein stability index given entry D4P
1.31

Return value of protein stability index for input Y21H , no commentary.
2.59

Give protein stability index for R8N
1.31

Fill in protein stability index for record F1A
2.63
